Values compiled from patent US20180008587A1.

For each record, write down the corresponding Emax.
Target: wild-type Androgen Receptor (AR-wt) (Homo sapiens, UniProt P10275)
Construct: expressed in transfected cells; host or cells: LNCaP (LNCaP AR (cs))
Assay: LNCaP-AR-wt AG reporter assay (ARE firefly luciferase, agonist mode)
Type: cell-based
Details: maximum % stimulation (agonist response) over tested concentration range; read-out: LNCaP-AR-wt AG MAX % Stim
One number for each entry, in %.

Compound	Value Units	Emax
Cc1cc(N2C(=O)C3(CCC3)N(c3ccc(C(=O)Nc4cncc(F)c4)c(F)c3)C2=S)cnc1C#N [Cpd 113]	%	25.3

Hey, quick one: what's Emax for each of these?
1. N#Cc1ncc(N2C(=O)C3(CCC3)N(c3ccc(OCCN4CCCC4)c(F)c3)C2=S)cc1C(F)(F)F [Cpd 66]
2. CNC(=O)c1ccc(N2C(=S)N(c3cnc(C#N)c(C)c3)C(=O)C23CCC3)cc1C [Cpd 5]
3. Cc1cc(N2C(=O)C3(CCC3)N(c3ccc(OC4CCSCC4)cc3)C2=S)cnc1C#N [Cpd 13]

Key:
1. 0.6
2. 0.7
3. 0.4

====

Hi there, I'd appreciate the recorded Emax for every entry that follows.
Molecular target: wild-type Androgen Receptor (AR-wt) (Homo sapiens)
Construct: expressed in transfected cells; host or cells: LNCaP (LNCaP AR (cs))
Sequence (P10275 1-920): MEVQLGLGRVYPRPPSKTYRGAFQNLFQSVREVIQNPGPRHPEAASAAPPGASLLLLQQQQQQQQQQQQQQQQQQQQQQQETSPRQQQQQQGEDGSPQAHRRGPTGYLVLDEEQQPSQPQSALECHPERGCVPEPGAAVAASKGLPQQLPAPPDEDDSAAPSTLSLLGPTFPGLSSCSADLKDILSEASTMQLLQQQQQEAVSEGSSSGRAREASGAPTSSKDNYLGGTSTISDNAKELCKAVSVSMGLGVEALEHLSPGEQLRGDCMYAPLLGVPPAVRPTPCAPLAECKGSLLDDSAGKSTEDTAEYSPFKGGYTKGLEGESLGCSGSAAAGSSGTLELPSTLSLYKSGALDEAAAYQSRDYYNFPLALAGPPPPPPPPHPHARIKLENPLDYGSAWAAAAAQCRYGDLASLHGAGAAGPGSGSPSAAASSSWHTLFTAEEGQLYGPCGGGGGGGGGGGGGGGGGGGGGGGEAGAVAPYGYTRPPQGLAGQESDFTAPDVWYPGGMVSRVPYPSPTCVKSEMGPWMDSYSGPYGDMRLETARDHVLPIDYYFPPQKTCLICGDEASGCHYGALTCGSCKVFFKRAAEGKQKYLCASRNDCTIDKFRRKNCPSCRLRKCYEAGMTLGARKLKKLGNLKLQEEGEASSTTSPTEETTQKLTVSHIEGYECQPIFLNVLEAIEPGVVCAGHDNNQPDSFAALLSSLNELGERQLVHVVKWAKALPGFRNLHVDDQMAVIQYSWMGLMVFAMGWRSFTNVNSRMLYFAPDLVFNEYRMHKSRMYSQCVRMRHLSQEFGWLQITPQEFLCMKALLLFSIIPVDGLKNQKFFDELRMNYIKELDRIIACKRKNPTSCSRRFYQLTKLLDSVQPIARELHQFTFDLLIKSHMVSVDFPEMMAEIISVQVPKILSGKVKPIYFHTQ
Test: LNCaP-AR-wt AG reporter assay (ARE firefly luciferase, agonist mode)
Format: cell-based
Conditions: read-out: LNCaP-AR-wt AG MAX % Stim
Give bare numbers, in %.

Look at each compound and report its Emax.
1. N#Cc1ncc(N2C(=O)C3(CCC3)N(c3ccc(Oc4ccncn4)cc3)C2=S)cc1C(F)(F)F
2. Cc1cc(N2C(=O)C3(CCC3)N(c3ccc(C(=O)NC4CCOCC4)c(F)c3)C2=S)cnc1C#N
3. N#Cc1ncc(N2C(=O)C3(CCC3)N(c3cccnc3)C2=S)cc1C(F)(F)F
4. N#Cc1ncc(N2C(=O)C3(CCC3)N(c3cccc4ccccc34)C2=S)cc1C(F)(F)F
5. N#Cc1ncc(N2C(=O)C3(CCC3)N(c3ccc4[nH]ncc4c3)C2=S)cc1C(F)(F)F
6. N#Cc1ncc(N2C(=O)C3(CCC3)N(c3ccc(Oc4ccccc4)cc3)C2=S)cc1C(F)(F)F
7. N#Cc1ncc(N2C(=O)C3(CCC3)N(c3ccc(C(=O)NCCCc4ccccc4)c(F)c3)C2=S)cc1C(F)(F)F

Key:
[0.5, 0.8, -0.2, -0.1, 2.8, 1.6, 0]

Can you give me Emax for all of these, one by one?
1. N#Cc1ncc(N2C(=O)C3(CCC3)N(c3ccc(Oc4cncnc4)cc3)C2=S)cc1C(F)(F)F
2. N#Cc1ncc(N2C(=O)C3(CCC3)N(c3ccc(C(=O)NCc4ccccc4Cl)c(F)c3)C2=S)cc1C(F)(F)F

Key:
[0.7, 0.2]

I'm hoping you can list Emax for every compound here, please.
1. Cc1cc(N2C(=O)C3(CCC3)N(c3ccc(Oc4ccncn4)cc3)C2=S)cnc1C#N
2. N#Cc1ncc(N2C(=O)C3(CCC3)N(c3ccc(C(=O)NCc4ccccn4)c(F)c3)C2=S)cc1C(F)(F)F
3. Cc1ccc(N2C(=S)N(c3cnc(C#N)c(C)c3)C(=O)C23CCC3)cc1
4. CN1CCC(Oc2ccc(N3C(=S)N(c4cnc(C#N)c(C(F)(F)F)c4)C(=O)C3(C)C)cc2)CC1
5. Cc1cc(N2C(=O)C3(CCC3)N(c3ccc(C(=O)Nc4nccs4)c(F)c3)C2=S)cnc1C#N
6. Cc1cc(N2C(=O)C3(CCC3)N(c3ccc(-c4cncnc4)cc3)C2=S)cnc1C#N

Key:
[0.8, -0.2, 0.7, 0.3, 0.7, 0.9]

Exercise: Give its Emax value. Item: "N#Cc1ncc(N2C(=O)C3(CCC3)N(c3ccc(OC4CCN(CCO)CC4)cc3)C2=S)cc1C(F)(F)F"
Key: 0.8
